Here, each record is paired with measured EC50 data.
System: HIV-1 (IIIB), HIV-1 (NL4.3)
Assay: microbe, parasite or virus in culture
Type: cell-based
Settings: Human immunodeficiency virus 1, IIIB, MT4; MT-4 cells, 50% protection against HIV-induced cytopathogenic effect, MTT
Give a bare numeral; the unit µM is implied.

Before answering, review these 4 worked examples.
[
  {
    "MOLECULE": "Cc1nc2sc3c(c2c(-c2cnn(C)c2)c1C(OC(C)(C)C)C(=O)O)CCCC3 (centres unmarked) [Cpd 177]",
    "TARGET_SYSTEM": "HIV-1 (IIIB), HIV-1 (NL4.3)",
    "EC50, µM": 1.17
  },
  {
    "MOLECULE": "COCCC(C(=O)O)c1c(C)nc2sc3c(c2c1-c1ccc(C)cc1)CCC3 (centres unmarked) [Cpd 122]",
    "TARGET_SYSTEM": "HIV-1 (IIIB), HIV-1 (NL4.3)",
    "EC50, µM": 5.3
  },
  {
    "MOLECULE": "CCCC(C(=O)O)c1c(C)nc2sc3c(c2c1-c1ccc(OC)cc1)CCC3 (centres unmarked) [Cpd 131]",
    "TARGET_SYSTEM": "HIV-1 (IIIB), HIV-1 (NL4.3)",
    "EC50, µM": 2.43
  },
  {
    "MOLECULE": "CCCC(C(=O)O)c1c(C)nc2sc3c(c2c1-c1cc2ccccc2o1)CCCC3 (centres unmarked) [Cpd 154]",
    "TARGET_SYSTEM": "HIV-1 (IIIB), HIV-1 (NL4.3)",
    "EC50, µM": 6.28
  }
]

Entry Cc1ccc(-c2c(CC(=O)O)c(C)nc3sc(C)cc23)cc1 [Cpd 106] ; assay system HIV-1 (IIIB), HIV-1 (NL4.3); EC50 recorded at 96.4

====

Biological target: LEDGF/p75-HIV-1 integrase interaction (Human immunodeficiency virus type 1 group M subtype B (isolate HXB2) (HIV-1), UniProt P04585)
Assay: AlphaScreen assay of LEDGF-integrase interaction inhibition
Type: binding
Details: His6-tagged integrase 300 nM, flag-LEDGF/p75 100 nM; read-out: Alphascreen IC50
MEASUREMENT_TYPE: pIC50
Please treat pIC50 as minus the base-10 logarithm of the molar concentration.

Recorded pIC50, per entry:
[
  {
    "COMPOUND": "COCCC(C(=O)O)c1c(C)nc2sc3c(c2c1-c1ccc(C)cc1)CCC3 (stereo not drawn) [Cpd 122]",
    "pIC50": 5.49
  },
  {
    "COMPOUND": "CCCC(C(=O)O)c1c(C)nc2sc3c(c2c1-c1ccc(Cl)c(Cl)c1)CCCC3 (stereo not drawn) [Cpd 139]",
    "pIC50": 5.03
  },
  {
    "COMPOUND": "CCC(C)C(C(=O)O)c1c(C)nc2sc3c(c2c1-c1ccc(C)cc1)CCCC3 (stereo not drawn) [Cpd 157]",
    "pIC50": 4.58
  },
  {
    "COMPOUND": "CCCC(C(=O)O)c1c(C)nc2sc3c(c2c1-c1ccc(C(F)(F)F)cc1)CCC3 (stereo not drawn) [Cpd 116]",
    "pIC50": 6.21
  },
  {
    "COMPOUND": "CCCC(C(=O)O)c1c(C)nc2sc3c(c2c1-c1ccccc1F)CCCC3 (stereo not drawn) [Cpd 153]",
    "pIC50": 4.36
  },
  {
    "COMPOUND": "CCCC(C(=O)O)c1c(C)nc2sc3c(c2c1-c1cccc(Cl)c1)CCCC3 (stereo not drawn) [Cpd 138]",
    "pIC50": 4.40
  },
  {
    "COMPOUND": "CCCC(C(=O)O)c1c(CC)nc2sc3c(c2c1-c1ccc(C)cc1)CCCC3 (stereo not drawn) [Cpd 181]",
    "pIC50": 5.09
  },
  {
    "COMPOUND": "CCCC(C(=O)O)c1c(C)nc2sc3c(c2c1-c1cccc(C(F)(F)F)c1)CCCC3 (stereo not drawn) [Cpd 140]",
    "pIC50": 4.74
  },
  {
    "COMPOUND": "CCCC(C(=O)O)c1c(C)nc2scc(-c3ccccc3)c2c1-c1ccc(C)cc1 (stereo not drawn) [Cpd 143]",
    "pIC50": 4.31
  },
  {
    "COMPOUND": "CCCC(C(=O)O)c1c(C)nc2sc3c(c2c1-c1ccc(C)cc1)CCN(Cc1ccccc1)C3 (stereo not drawn) [Cpd 163]",
    "pIC50": 5.35
  }
]

The measured pIC50 associated with Cc1ccc(-c2c(C(OC(C)(C)C)C(=O)O)c(C)nc3sc4c(c23)CCCC4)cn1 (stereo not drawn) [Cpd 184] reads 5.46

Item: Cc1ccc(-c2c(C(CC(C)C)C(=O)O)c(C)nc3sc4c(c23)CCCC4)cc1 (stereo not drawn) [Cpd 136] | pIC50: 5.36

Input CCCC(C(=O)O)c1c(C)nc2sc3c(c2c1-c1cccc(C)c1)CCCC3 (stereo not drawn) [Cpd 141] . Output pIC50: 4.63

Quick note, pIC50 for CCCC(C(=O)O)c1c(C)nc2sc3c(c2c1-c1cc2ccccc2o1)CCCC3 (stereo not drawn) [Cpd 154] landed at 5.09

Lab book: pIC50 of Cc1ccc(-c2c(C(Cc3ccccc3)C(=O)O)c(C)nc3sc4c(c23)CCC4)cc1 (stereo not drawn) [Cpd 134] noted as 4.08

Reported pIC50 for Cc1ccc(-c2c(C(CCC(F)(F)F)C(=O)O)c(C)nc3sc4c(c23)CCCC4)cc1 (stereo not drawn) [Cpd 158] was 4.87

The recorded pIC50 for entry Cc1ccc(-c2c(C(CC(C)(C)C)C(=O)O)c(C)nc3sc4c(c23)CCCC4)cc1 (stereo not drawn) [Cpd 162] equals 5.80

# pIC50 (compound: Cc1ccc(-c2c(C(CCc3ccccc3)C(=O)O)c(C)nc3sc4c(c23)CCCC4)cc1 (stereo not drawn) [Cpd 155] ) is 4.09

Lookup result for CCCC(C(=O)O)c1c(C)nc2sc3c(c2c1-c1cccs1)CCC3 (stereo not drawn) [Cpd 130] ; measured pIC50: 4.51

pIC50 measured on CCCC(C(=O)O)c1c(C)nc2sc3c(c2c1-c1ccc(C)cc1)CC(C)C3 (stereo not drawn) [Cpd 127] = 5.55

Record CCOC(C(=O)O)c1c(C)nc2sc3c(c2c1-c1ccc(C)cc1)CCCC3 (stereo not drawn) [Cpd 171] , field pIC50: 5.92

// field: pIC50; key: CCCC(C(=O)O)c1c(-c2ccccc2)nc2sc3c(c2c1-c1ccc(C)cc1)CCC3 (stereo not drawn) [Cpd 126] ; value = 4.25

Query Cc1ccc(-c2c(CC(=O)O)c(C)nc3sc(C)cc23)cc1 [Cpd 106] yields pIC50 of 4.27

// CCCC(C(=O)O)c1c(C)nc2sc(C)c(C)c2c1-c1ccc(C)cc1 (stereo not drawn) [Cpd 108] : pIC50 value = 5.35

Recorded pIC50 (compound C#CCC(C(=O)O)c1c(C)nc2sc3c(c2c1-c1ccc(C)cc1)CCCC3 (stereo not drawn) [Cpd 159] ): 4.88

Value of pIC50 reported for the compound CCCC(C(=O)O)c1c(C)nc2sc3c(c2c1-c1ccc(OC)c(OC)c1)CCCC3 (stereo not drawn) [Cpd 145] is 4.53

Entry CCCC(C(=O)O)c1c(C)nc2sc(C)c(CC)c2c1-c1ccc(C)cc1 (stereo not drawn) [Cpd 109] ; pIC50 = 5.17

Documented pIC50 of CCCC(C(=O)O)c1c(C)nc2sc3c(c2c1-c1ccc(Cl)cc1)CCC3 (stereo not drawn) [Cpd 112] : 5.95

// pIC50 value for C=C(C(=O)O)c1c(C)nc2sc3c(c2c1-c1ccc(C)cc1)CCC3 [Cpd 124] : 4.39

So for CCCC(C(=O)O)c1c(C)nc2sc3c(c2c1-c1ccccc1)CCC3 (stereo not drawn) [Cpd 107] , the logged pIC50 turned out to be 4.46
